The reported numbers originate from patent US8680159B2.

- assayed_target: B1R receptor of the rat (CHO K1 cells stably transfected with the B1R gene of the rat) (Rattus norvegicus, UniProt P97583)
- Construct: expressed in transfected cells; host or cells: CHO K1 cells (Chinese hamster ovary), stably transfected
- Sequence (P97583 1-337): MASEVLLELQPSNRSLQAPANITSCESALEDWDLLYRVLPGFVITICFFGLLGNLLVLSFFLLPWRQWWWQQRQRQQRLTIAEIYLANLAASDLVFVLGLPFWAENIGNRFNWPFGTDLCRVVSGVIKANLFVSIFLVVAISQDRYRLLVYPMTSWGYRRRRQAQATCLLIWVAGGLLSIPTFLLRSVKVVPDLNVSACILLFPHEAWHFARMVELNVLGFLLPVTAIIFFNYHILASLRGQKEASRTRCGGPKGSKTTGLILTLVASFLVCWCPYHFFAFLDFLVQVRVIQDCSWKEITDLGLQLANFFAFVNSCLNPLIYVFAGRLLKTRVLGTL
- measurement_notes: Functional study on the bradykinin receptor 1 (B1R), Ca2+ fluorescence (Fluo-4) FLIPR/Novostar assay, rB1R cells
- Type: cell-based
- condition_set: CHO-K1, 10 μM, read-out: % Inhibition (r-B1R) at 10 μM
readout_name: inhibition at 10 µM (%)

CN(C(=O)c1ccc2c(c1)C(NC(=O)CCC1CCCC1)CCC2)C1CCN(c2ccncc2)CC1 (stereo not drawn)	104
Cc1cccc(C)c1C(=O)NC1CCCc2ccc(C(=O)N(C)C3CCN(c4ccncc4)CC3)cc21 (stereo not drawn)	103
CCCC(=O)NC1CCc2ccc(C(=O)N(C)C3CCN(c4ccc5cnccc5c4)CC3)cc21 (stereo not drawn)	103
CN(C(=O)c1ccc2c(c1)CCC2NC(=O)c1cc(F)ccc1Cl)C1CCN(c2ccncc2)CC1 (stereo not drawn)	87
Cc1cc(N2CCC(N(C)C(=O)c3ccc4c(c3)C(N(C)C(=O)C3CC3)CC4)CC2)cc(C)n1 (stereo not drawn)	104
CN(C(=O)c1ccc2c(c1)C(NC(=O)C1CC1)CC2)C1CCN(c2ccc3cnccc3c2)CC1 (stereo not drawn)	110
CN(C(=O)c1ccc2c(c1)C(NC(=O)Nc1cccc(Cl)c1Cl)CCC2)C1CCN(c2ccncc2)CC1 (stereo not drawn)	106
Cc1cc(N2CCC(N(C)C(=O)c3ccc4c(c3)C(N(C)S(=O)(=O)c3c(C)cccc3Cl)CC4)CC2)cc(C)n1 (stereo not drawn)	110
Cc1cc(N2CCC(N(C)C(=O)c3ccc4c(c3)C(N(C)C(=O)c3c(F)ccc(C)c3Cl)CC4)CC2)cc(C)n1 (stereo not drawn)	112
CN(C(=O)c1ccc2c(c1)C(NC(=O)c1cc(Cl)ccc1Cl)CC2)C1CCN(c2ccc3cnccc3c2)CC1 (stereo not drawn)	110
CN(C(=O)c1ccc2c(c1)C(NC(=O)Nc1cccc(Cl)c1)CCO2)C1CCN(c2ccncc2)CC1 (stereo not drawn)	99
Cc1cc(N2CCC(N(C)C(=O)c3ccc4c(c3)C(NC(=O)Nc3cc(C(F)(F)F)ccc3Cl)CC4)CC2)cc(C)n1 (stereo not drawn)	80
Cc1cc(N2CCC(N(C)C(=O)c3ccc4c(c3)C(NC(=O)Nc3cc(Cl)ccc3Cl)CC4)CC2)cc(C)n1 (stereo not drawn)	96
CN(C(=O)c1ccc2c(c1)C(NC(=O)c1cccc(Cl)c1Cl)CCO2)C1CCN(c2ccncc2)CC1 (stereo not drawn)	104
CN(C(=O)c1ccc2c(c1)C(NC(=O)CC(C)(C)C)CC2)C1CCN(c2ccc3cnccc3c2)CC1 (stereo not drawn)	110

###

- assayed_target: human B1R receptor (CHO K1 cells stably transfected with the human B1R gene) (Homo sapiens)
- Construct: expressed in transfected cells; host or cells: CHO K1 cells (Chinese hamster ovary), stably transfected
- Sequence (P46663 1-353): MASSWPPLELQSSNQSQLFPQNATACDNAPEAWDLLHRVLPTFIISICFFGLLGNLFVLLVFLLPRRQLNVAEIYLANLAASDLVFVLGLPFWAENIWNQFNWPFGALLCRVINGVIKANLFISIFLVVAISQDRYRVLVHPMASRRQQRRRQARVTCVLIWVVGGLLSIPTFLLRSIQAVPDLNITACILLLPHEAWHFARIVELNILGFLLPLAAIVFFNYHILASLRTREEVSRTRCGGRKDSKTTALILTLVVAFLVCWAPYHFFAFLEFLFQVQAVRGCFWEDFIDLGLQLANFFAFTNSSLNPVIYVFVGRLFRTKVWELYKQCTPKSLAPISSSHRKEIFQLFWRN
- measurement_notes: Functional study on the bradykinin receptor 1 (B1R), Ca2+ fluorescence (Fluo-4) FLIPR/Novostar assay, hB1R cells
- Format: cell-based
- condition_set: CHO-K1, read-out: % inhibition (human B1R) at 10 μM
readout_name: inhibition at 10 µM (%)

CC(C)N(C(=O)c1cccc(F)c1Cl)[C@@H]1CCc2ccc(C(=O)N(C)C3CCN(c4ccncc4)CC3)cc21 [Example H-202]	100
Cc1cc(N2CCC(N(C)C(=O)c3ccc4c(c3)[C@H](NC(=O)c3cccnc3C(F)(F)F)CC4)CC2)nc(C)n1 [Example H-91]	100
Cc1cc(N2CCC(N(C)C(=O)c3ccc4c(c3)[C@H](N(C(=O)c3cccc(F)c3Cl)C(C)C)CC4)CC2)nc(C)n1 [Example H-196]	98
Cc1cc(N2CCC(N(C)C(=O)c3ccc4c(c3)[C@H](NC(=O)CC(C)C(C)C)CC4)CC2)ccn1 (stereo partly shown) [Example H-222]	99

###

- assayed_target: human B1R receptor (CHO K1 cells stably transfected with the human B1R gene) (Homo sapiens)
- Construct: expressed in transfected cells; host or cells: CHO K1 cells (Chinese hamster ovary), stably transfected
- measurement_notes: Functional study on the bradykinin receptor 1 (B1R), Ca2+ fluorescence (Fluo-4) FLIPR/Novostar assay, hB1R cells
- Format: cell-based
- condition_set: CHO-K1, read-out: % inhibition (human B1R) at 10 μM
readout_name: inhibition at 10 µM (%)

CN(CC1CCN(c2ccncc2)CC1)C(=O)c1ccc2c(c1)[C@H](NC(=O)c1ccccc1Cl)CC2	96
CN(C(=O)c1ccc2c(c1)[C@H](NC(=O)c1ccccc1)CC2)C1CCN(c2ccncc2)CC1	100
CN(C(=O)c1ccc2c(c1)OCC[C@H]2NC(=O)c1ccccc1Cl)C1CCN(c2ccncc2)CC1	94
CCN(C(=O)c1cccc(F)c1Cl)[C@@H]1CCc2ccc(C(=O)N(C)C3CCN(c4ccncc4)CC3)cc21	100

###

- assayed_target: B1R receptor of the rat (CHO K1 cells stably transfected with the B1R gene of the rat) (Rattus norvegicus, UniProt P97583)
- Construct: expressed in transfected cells; host or cells: CHO K1 cells (Chinese hamster ovary), stably transfected
- measurement_notes: Functional study on the bradykinin receptor 1 (B1R), Ca2+ fluorescence (Fluo-4) FLIPR/Novostar assay, rB1R cells
- Format: cell-based
- condition_set: CHO-K1, 10 μM, read-out: % inhibition (rat B1R) at 10 μM
readout_name: inhibition at 10 µM (%)

Cc1cc(N2CCC(N(C)C(=O)c3ccc4c(c3)[C@H](NC(=O)CC(C)C)CC4)CC2)nc(C)n1	98
CC(C)CS(=O)(=O)N[C@@H]1CCc2ccc(C(=O)N(C)C3CCN(c4ccncc4)CC3)cc21	104
COc1ccc(N2CCC(N(C)C(=O)c3ccc4c(c3)[C@H](NC(=O)c3ccccc3Cl)CC4)CC2)cc1	86
CN(C(=O)c1ccc2c(c1)[C@H](NC(=O)c1ccccc1)CC2)C1CCN(c2ccncc2)CC1	99
Cc1cc(N2CCC(N(C)C(=O)c3ccc4c(c3)[C@H](NC(=O)CCC3CCCC3)CC4)CC2)ccn1	103
Cc1cncc(N2CCC(N(C)C(=O)c3ccc4c(c3)[C@H](NC(=O)c3ccccc3Cl)CC4)CC2)n1	100
CN(C(=O)c1ccc2c(c1)[C@H](NC(=O)c1ccccc1Cl)CC2)C1CCN(c2ccnc(C#N)c2)CC1	107

###

- assayed_target: B1R receptor of the rat (CHO K1 cells stably transfected with the B1R gene of the rat) (Rattus norvegicus, UniProt P97583)
- Construct: expressed in transfected cells; host or cells: CHO K1 cells (Chinese hamster ovary), stably transfected
- Sequence (P97583 1-337): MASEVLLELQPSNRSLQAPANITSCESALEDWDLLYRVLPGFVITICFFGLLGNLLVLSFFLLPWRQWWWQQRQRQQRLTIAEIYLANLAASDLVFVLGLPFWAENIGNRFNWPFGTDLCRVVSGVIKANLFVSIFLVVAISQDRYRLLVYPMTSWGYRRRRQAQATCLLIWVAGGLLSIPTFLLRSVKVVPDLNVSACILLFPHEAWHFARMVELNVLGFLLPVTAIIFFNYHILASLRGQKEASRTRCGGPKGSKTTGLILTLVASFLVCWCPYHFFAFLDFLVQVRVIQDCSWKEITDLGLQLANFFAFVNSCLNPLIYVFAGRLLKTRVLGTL
- measurement_notes: Functional study on the bradykinin receptor 1 (B1R), Ca2+ fluorescence (Fluo-4) FLIPR/Novostar assay, rB1R cells
- Assay type: cell-based
- condition_set: CHO-K1, 10 μM, read-out: % Inhibition (r-B1R) at 10 μM
readout_name: inhibition at 10 µM (%)

Cc1cc(N2CCC(N(C)C(=O)c3ccc4c(c3)C(N(C)C(=O)CC(C)(C)C)CC4)CC2)cc(C)n1 (centres unmarked) [CC_H-332]	111
CN(C(=O)c1ccc2c(c1)CCC2NC(=O)c1ccccc1Cl)C1CCN(c2ccncc2)CC1 (centres unmarked) [CC_H-68]	87
Cc1cc(N2CCC(N(C)C(=O)c3ccc4c(c3)C(N(C)C(=O)c3cc(F)ccc3Cl)CC4)CC2)cc(C)n1 (centres unmarked) [CC_H-325]	112
CC(=O)NC1CC(C)(C)c2ccc(C(=O)N(C)C3CCN(c4ccncc4)CC3)cc21 (centres unmarked) [CC_H-229]	104
CN(C(=O)c1ccc2c(c1)C(N(C)C(=O)c1cncnc1)CC2)C1CCN(c2ccncc2)CC1 (centres unmarked) [CC_H-45]	88
Cc1cc(N2CCC(N(C)C(=O)c3ccc4c(c3)C(NC(=O)C3CCCCC3)CC4)CC2)cc(C)n1 (centres unmarked) [CC_H-297]	110
Cc1cc(N2CCC(N(C)C(=O)c3ccc4c(c3)C(NS(=O)(=O)Cc3cccc(C(F)(F)F)c3)CC4)CC2)cc(C)n1 (centres unmarked) [CC_H-322]	84
CN(C(=O)c1ccc2c(c1)C(NC(=O)CC(C)(C)C)CC2)C1CCN(c2ccncc2)CC1 (centres unmarked) [CC_H-206]	109
